molecular target: Nuclear receptor subfamily 1 group I member 3 (Homo sapiens) (UniProt Q14994); assay: qHTS assay to identify small molecule agonists of the constitutive androstane receptor (CAR) signaling pathway (AID 1224839); details: HepG2 hCAR CYP2B6-luciferase, agonist mode, 24 h; series mostly up to 92.4 µM; further: nearly all actives have a fitted effect of over 15% in size;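 on activation: HepG2 cells stably carrying human CAR and a CYP2B6 luciferase reporter; on the % scale 0 is the no-effect control and ±100 the full control effect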
Sequence (Q14994 whole entry, looked up): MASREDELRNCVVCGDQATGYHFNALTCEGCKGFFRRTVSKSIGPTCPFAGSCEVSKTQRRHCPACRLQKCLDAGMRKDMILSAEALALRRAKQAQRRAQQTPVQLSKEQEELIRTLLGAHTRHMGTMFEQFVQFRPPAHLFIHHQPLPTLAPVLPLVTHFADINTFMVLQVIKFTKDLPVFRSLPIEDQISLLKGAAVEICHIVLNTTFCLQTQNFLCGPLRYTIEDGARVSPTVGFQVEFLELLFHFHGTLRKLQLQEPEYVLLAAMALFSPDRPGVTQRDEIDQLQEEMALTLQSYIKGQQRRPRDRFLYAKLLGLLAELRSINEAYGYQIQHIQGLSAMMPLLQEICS
Records with an inconclusive call do not appear. The source made the active and inactive calls. The call rests on the fitted dose curve; in most records, active means well fitted activation curve with a large enough effect in the repeat runs; inconclusive means weak or mixed curves; inactive means no such curve, though single readings can be large or run the other way.
Outcome codes: active, inactive

CCCCCCCCCCCC(=O)Cl	inactive
Cc1ccc2sc3cccc(C)c3c2c1	active
C/C=C/C(=O)C1=C(C)C=CCC1(C)C	inactive
Cn1ccnc1	inactive
ClC(c1ccccc1)(c1ccccc1)c1ccccc1	active
Clc1cccc(Cl)n1	inactive
NCc1ccco1	inactive
CSc1nnc(C(C)(C)C)c(=O)[nH]1	inactive
Brc1cc(Br)cc(Br)c1	inactive
CCC(C)(C)c1ccc(CC(C)CN2C[C@@H](C)O[C@@H](C)C2)cc1 (some centres undefined)	inactive
O=C(NCc1ncc(C(F)(F)F)cc1Cl)c1c(Cl)cccc1Cl	inactive
COc1cccc(-c2ccc(/C=C\CN3CCCCCC3)cc2Cl)c1	inactive
[Cl][Dy]([Cl])[Cl]	inactive
CC(C)C(=O)C(C)C	inactive
O=C1c2ccccc2C(=O)c2c(Cl)cccc21	active
C=CCc1cc(S(=O)(=O)c2ccc(O)c(CC=C)c2)ccc1O	inactive
N#Cc1nc(Cl)c(Cl)c(Cl)c1Cl	inactive
CC(=O)[C@]1(O)Cc2c(O)c3c(c(O)c2[C@@H](O[C@H]2C[C@H](N)[C@H](O)[C@H](C)O2)C1)C(=O)c1ccccc1C3=O	inactive
Nc1c(Br)cc([N+](=O)[O-])cc1Br	inactive
Cc1cc(C)c(O)c(C(C)(C)C)c1	inactive
CN(C)CCOc1ccc(/C(=C(/CCCl)c2ccccc2)c2ccccc2)cc1	inactive
COc1ccc(OC)c(N=Nc2c(O)ccc3ccccc23)c1	active
S=C1NC=NC2N=CNC12 (centres undefined)	inactive
O=c1cc[nH]cc1	inactive
CO[Si](OC)(c1ccccc1)c1ccccc1	inactive
O=C1OC2(c3ccccc31)c1ccc(O)c(Br)c1Oc1c2ccc(O)c1Br	inactive
C=CC(=O)O[C@H]1C[C@@H]2CC[C@@]1(C)C2(C)C	inactive
Clc1ccc2c(Cl)ccnc2c1	inactive
Cc1ccc(N=Nc2c(O)ccc3ccccc23)c(C)c1	active
CN1CCN(CCCN2c3ccccc3Sc3ccc(Cl)cc32)CC1	inactive
Nc1cc([N+](=O)[O-])cc(Cl)c1O	inactive
CCCCCCCCSCc1cc(C)c(O)c(CSCCCCCCCC)c1	inactive
Oc1ccc(C2(c3ccc(O)c(C4CCCCC4)c3)CCCCC2)cc1C1CCCCC1	inactive
CN(C[C@@H](CC[N+]12CCC(C3CCCCC3)(CC1)CC2)c1ccc(Cl)c(Cl)c1)C(=O)c1cc(C(F)(F)F)cc(C(F)(F)F)c1	inactive
Nc1cccnc1N	inactive
CCc1cccc(C)c1N(C(=O)C(=O)O)C(C)COC (centres undefined)	inactive
CC/C(=C(/c1ccc(O)cc1)c1ccc(OCCN(C)C)cc1)c1ccccc1	inactive
CCCCCCCCCCCCCCCCCCNC(=O)OC1CCN(C(=O)OC[C@H](COC(=O)N(Cc2cccc[n+]2CC)C(=O)c2ccccc2OC)OC)CC1	inactive
CCCCCCCCc1ccc(Nc2ccc(CCCCCCCC)cc2)cc1	inactive
CCOC(=O)[C@H](C)O	inactive
NC(=O)c1ccccc1Cl	inactive
CCCOC(=O)c1ccc(O)cc1	active
CN1CCN(CCCN2c3ccccc3Sc3ccc(C(F)(F)F)cc32)CC1	inactive
CCC(O)CO (centres undefined)	inactive
CCOC(=O)OC(=O)OCC	inactive
CCCCCCCCCCCCCCCCC(C(=O)O)C(O)(CC(=O)O)C(=O)O (centres undefined)	inactive
c1ccc2c(c1)-c1ccc3ccc4cccc5cc-2c1c3c45	active
CC(CC(C)(C)C)CC(C)(C)CC(C)(C)C (centres undefined)	inactive
c1ccc2occc2c1	inactive
COc1cc(OC)nc(NC(=O)NS(=O)(=O)Nc2ccccc2C(=O)N(C)C)n1	inactive
CCC1(C)C(=O)N(Cl)C(=O)N1Cl (centres undefined)	inactive
c1ccc(C[P+](c2ccccc2)(c2ccccc2)c2ccccc2)cc1	inactive
O=C1CCC/C=C\CCCCCCCCCC1	active
CC(O)(c1ccc(Cl)cc1)c1ccc(Cl)cc1	active

###

target: Peroxisome proliferator-activated receptor gamma (Homo sapiens); test: qHTS assay to identify small molecule agonists of the peroxisome proliferator-activated receptor gamma (PPARg) signaling pathway (AID 743094); conditions: HEK293H PPARg-UAS-bla, beta-lactamase FRET ratio, 17 h; series mostly up to 57 µM; on activation: on the % scale 0 is the no-effect control and ±100 the full control effect
Results filed as inconclusive are left out. Activity calls are given as the source filed them. The call rests on the fitted dose curve; in most records, active means well fitted activation curve with a large enough effect in the signal ratio in the repeat runs (not every such curve was filed as active); inconclusive means weak or mixed curves, or effect the other way; inactive means no such curve, though single readings can be large or run the other way; the % refers to the signal ratio.
Outcomes: 1 (active), 0 (inactive)

CC(C)(O/N=C(\C(=O)N[C@@H]1C(=O)N2C(C(=O)[O-])=C(C[n+]3ccccc3)CS[C@H]12)c1csc(N)n1)C(=O)O	0
CC/C=C\C/C=C\C/C=C\C/C=C\C/C=C\C/C=C\CCC(=O)O	0
O=C1CCC(c2ccc(-n3ccnc3)cc2)=NN1	0
CC(C)(C)c1ccc2c(S(=O)(=O)O)c(C(C)(C)C)ccc2c1	1
NC(=O)CC[C@@H]1NC(=O)[C@H](Cc2ccccc2)NC(=O)[C@H](Cc2ccc(O)cc2)NC(=O)[C@@H](N)CSSC[C@@H](C(=O)N2CCC[C@H]2C(=O)N[C@@H](CCCN=C(N)N)C(=O)NCC(N)=O)NC(=O)[C@H](CC(N)=O)NC1=O	0
Cc1c(O)c(=O)ccn1C	0
CC(C)C[C@@H](NC(=O)[C@@H](O)[C@H](N)Cc1ccccc1)C(=O)O	0
FC(F)(F)C(F)(F)C(F)(F)C(F)(F)C(F)(F)F	0
CC(C)(C)C(=O)OCC(=O)[C@H]1CC[C@H]2[C@@H]3CCC4=CC(=O)CC[C@]4(C)[C@H]3CC[C@]12C	0

###

Entries annotated with measured max response
assay: qHTS RealTime-Glo MT Cell Viability Assay in HEK293 cells - 40 hour (AID 1224874); settings: RealTime-Glo luminescence; active compounds read low; further: on the % scale 0 is the no-effect control and ±100 the full control effect; nearly all actives have a fitted effect of over 50% in size
Records with an inconclusive call do not appear.
valueKind: max response (%)

O=C1CCC/C=C\CCCCCCCCCC1	-5.39
Cn1ccnc1	9.06
Cc1ccc(C=O)cc1	7.49
COc1cc(C(C)C)ccc1C	-0.423
[Cl][Eu]([Cl])[Cl]	-1.1
CCC(O)CO (configuration not stated)	-1.31
O=c1[nH]cccc1O	-23.7
CCCC(=O)c1cc(O)c(O)cc1O	1.65
Clc1ccc2c(Cl)ccnc2c1	-6.98
Cc1cccc(C)c1C	4
O=c1cc[nH]cc1	1.32
CC/C=C\C/C=C\C/C=C\CCCCCCCC(=O)OC	-12.1
c1ccc(-c2ccccc2-c2ccccc2)cc1	-10.2
Oc1ccc2c(c1)CCC2	-3.07
CCCCCCCCCCCCS(=O)(=O)Cl	12.1
CCCCCCCCCCCCCCCCC(C(=O)O)C(O)(CC(=O)O)C(=O)O (configuration not stated)	-0.507
CC/C=C(\C)C=O	4.52

###

Target: Nuclear receptor subfamily 1 group I member 2 (Rattus norvegicus)
Assay: Rat pregnane X receptor (rPXR) activation by small molecules, qHTS assay (AID 1346983); further: on the % scale 0 is the no-effect control and ±100 the full control effect; nearly all actives have a fitted effect of over 20% in size
Conditions: rPXR luciferase reporter cells, One-Glo luminescence, 24 h; active compounds read high
Source text: National Center for Advancing Translational Sciences [NCATS] NIH Chemical Genomics Center [NCGC] U.S. Environmental Protection Agency [EPA] National Institutes of Environmental Health Sciences [NIEHS] National Toxicology Program [NTP] Assay overview: The Pregnane X receptor (PXR), a ligand activated nuclear receptor plays a critical role in the regulation of genes involved in drug metabolism and transporters. […]
Results filed as inconclusive are left out.
valueKind: max activation (%)

COc1cc(/C=C/C(=O)CC(=O)/C=C/c2ccc(O)c(OC)c2)ccc1O	8.99
CC[C@@]1([C@@H]2O[C@@H]([C@H]3O[C@@](O)(CO)[C@H](C)C[C@@H]3C)C[C@@H]2C)CC[C@H]([C@]2(C)CC[C@]3(C[C@H](O)[C@@H](C)[C@@H]([C@@H](C)[C@@H](OC)[C@H](C)C(=O)O)O3)O2)O1 (stereo in doubt)	-15.4
C[Se]CC[C@H](N)C(=O)O	-6.85
CC(C)C[C@@H](NC(=O)[C@@H](O)[C@H](N)Cc1ccccc1)C(=O)O	-7.87
Cc1cc(C(=O)NCCc2ccc(S(=O)(=O)NC(=O)NN3CCCCCC3)cc2)no1	-0.977
NC[C@@H]1CC[C@@H](N)[C@@H](O[C@H]2[C@H](O)[C@@H](O[C@H]3O[C@H](CO)[C@@H](O)[C@H](N)[C@H]3O)[C@H](N)C[C@@H]2N)O1	-0.783
NC(=O)[C@@H]1C[C@]2(NC(=O)NC2=O)c2cc(F)ccc2O1	-1.76
O=P(O)(O)CP(=O)(O)O	-0.378

Reference source for all entries: PubChem BioAssay (Tox21)
